Form field: GI50 (one value per entry).
test system: IGROV-1; assay: NCI tumour cell line growth inhibition, 48 h
Active and inactive are the calls of the source. No stated cut-off is given here; in the data, active = GI50 up to about 1.1 µM and inactive = higher.
readout: GI50

molecule | tested.system | result
[O-][S+]1CSCS1 (stereo not drawn) | IGROV-1 | > 100 µM (inactive)
OC(c1ccccc1)(c1cccnc1)C(O)(c1ccccc1)c1cccnc1 (stereo not drawn) | IGROV-1 | > 100 µM (inactive)
CC(C)(C)OC(=O)N(CCCCN(CCCNC(=O)C(F)(F)F)C(=O)OC(C)(C)C)CCCNC(=O)C(F)(F)F | IGROV-1 | > 100 µM (inactive)
O=C(c1nc2ccc(Cl)cc2[nH]c1=O)C(O)c1ccco1 (stereo not drawn) | IGROV-1 | 45.9 µM (inactive)
O=C(CCN1CCC(CCO)CC1)Nc1ccc2c(c1)C(=O)c1ccc(NC(=O)CCN3CCC(CCO)CC3)cc1C2=O | IGROV-1 | 24.7 µM (inactive)
CCn1c2ccccc2c2cc(NC(=O)c3c(C)nc(O)nc3NCCNCCO)ccc21 | IGROV-1 | > 100 µM (inactive)
Cc1c2c3cc(O)ccc3nc-2n(C)c2ccccc12 | IGROV-1 | 2.17 µM (inactive)
COc1cc([C@@H]2c3cc4c(cc3[C@H](OC3OC5COC(c6ccco6)OC5C(O)C3O)C3COC(=O)[C@@H]32)OCO4)cc(OC)c1OC (stereo partly drawn) | IGROV-1 | 3.56 µM (inactive)
